Recorded values, source patent US20030148958A1.

Experimental system: corticotropin releasing factor 1 receptor; further: reference of the scale not given here
Assay info: cell-based or functional assay
Ends that are not written are not given here.
Classify as follows. Reported CRF1R Emax greater than or equal to 90%: Met. Reported CRF1R Emax below: Not met.

Binder: SQEPPISLDLTFGLLREVLEMTKADQLAQQAHSNRKLLDIA-NH2 [SEQ ID NO 88]
Assigned category: Not met
--
Binder: IVLSLDVPIGLLQILLEQAKQEAAREQATTNARILARV-NH2 [SEQ ID NO 124]
Assigned category: Not met
--
Binder: ZGPPISIDLPQILLRKMIEIEKQEKEKQQAANNRLLLDTI (C-terminal amide) [SEQ ID NO 199]
Assigned category: Met
--
Binder: ZGPPISIDLPFHLLRKMIEIEKQEKEKQQATTNARILARV (C-terminal amide) [SEQ ID NO 146]
Assigned category: Met
--
Binder: ZGPPISIDLPFQLLRKMIEIEKQEKEKQQATTNARLLARV (C-terminal amide) [SEQ ID NO 23]
Assigned category: Not met
